# GI50 per entry
System: NCI-ADR-RES (Ovarian) cells
test-details: Sulforhodamine B (SRB) assay, NCI-ADR-RES (multidrug resistant)
Type: cell-based, human
condition-info: Homo sapiens; NCI-ADR-RES Ovarian, SRB, 48 h

| molecule | GI50 |
| --- | --- |
| CON=C1CC2C(CC[C@]3(C)C(=O)C(F)CC23)[C@@]2(C)CCC(=NOC3CCNC3)CC12 (stereo in doubt) | 14 nM |
| CC1CC2C(CC[C@]3(C)C(=O)C(F)CC23)[C@@]2(C)CCC(=NOC3CCNC3)C=C12 (stereo partly shown) | 4130 nM |
| C[C@]12CCC(=NOC3CCNC3)CC1CCC1C2CC[C@]2(C)C(=O)C(F)CC12 (stereo partly shown) | 29 nM |
| C=C1CC2C(CC[C@]3(C)C(=O)C(F)CC23)[C@@]2(C)CCC(=NOC3CCNC3)CC12 (stereo partly shown) | 18 nM |
